Reference source for all entries: ChEMBL document CHEMBL4371003

- Assay summary: Half life in AML patient at 120 mg, po qd
- Format: ADME, organism-based
- Condition details: human, in vivo
Assay endpoint: half-life (h)
Your answer is read as h, so omit the unit and give the number.

Q: Using the record for O=C(Cc1ccc(-c2ccc(OCCN3CCOCC3)cc2)cn1)NCc1ccccc1 , state its measured half-life.
Ans: 2.2

* * *

- Assay summary: Cmax in solid tumor patient at 80 mg, po BID during phase 1 clinical trial
- Type: ADME, organism-based
- Parameters: dose 80 mg, route oral
- Condition details: human, in vivo
Assay endpoint: Cmax (ng/mL)
Answer in ng/mL, number only, no unit symbol.

Q: Complete the entry with Cmax for O=C(Cc1ccc(-c2ccc(OCCN3CCOCC3)cc2)cn1)NCc1ccccc1 [TIRBANIBULIN]
Ans: 273

* * *

- Assay target: Proto-oncogene tyrosine-protein kinase Src (Homo sapiens)
- Sequence (P12931 2-536 limits assumed): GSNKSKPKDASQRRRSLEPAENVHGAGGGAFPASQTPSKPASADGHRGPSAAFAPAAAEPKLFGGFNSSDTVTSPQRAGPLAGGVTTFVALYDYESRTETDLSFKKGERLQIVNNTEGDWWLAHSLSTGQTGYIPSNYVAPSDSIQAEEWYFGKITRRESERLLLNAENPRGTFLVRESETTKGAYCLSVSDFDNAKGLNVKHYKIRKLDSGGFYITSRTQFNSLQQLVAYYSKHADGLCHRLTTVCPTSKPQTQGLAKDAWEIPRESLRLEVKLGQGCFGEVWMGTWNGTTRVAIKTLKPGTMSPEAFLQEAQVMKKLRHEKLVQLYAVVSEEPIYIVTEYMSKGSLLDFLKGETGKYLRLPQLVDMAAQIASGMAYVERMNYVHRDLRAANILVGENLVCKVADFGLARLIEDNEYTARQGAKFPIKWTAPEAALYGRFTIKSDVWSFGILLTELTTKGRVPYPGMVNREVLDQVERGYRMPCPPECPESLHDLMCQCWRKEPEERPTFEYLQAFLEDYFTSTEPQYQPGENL
- Assay summary: Inhibition of Src (unknown origin)
Assay endpoint: pIC50
// scale note: pIC50 = -log10(conc_M); give the bare number

Molecule	Assay endpoint	Measured result
O=C(Cc1ccc(-c2ccc(N3CCOCC3)cc2)cn1)NCc1cccc(F)c1 [KX2-361]	pIC50	4.17

Then there is this molecule:
Q: Output measured pIC50 for this item: O=C(Cc1ccc(-c2ccc(OCCN3CCOCC3)cc2)cn1)NCc1ccccc1 [TIRBANIBULIN]
Ans: 4.34

* * *

- Assay summary: Cmax in CRPC patient at 40 mg, po BID during phase 2 trial by LC-MS analysis
- Assay type: ADME, organism-based
- Set-up: dose 40 mg, route oral
- Condition details: human, in vivo
Assay endpoint: Cmax (ng/mL)
# number only, unit ng/mL dropped from output

Q: Given O=C(Cc1ccc(-c2ccc(OCCN3CCOCC3)cc2)cn1)NCc1ccccc1 , respond with its Cmax.
Ans: 61

* * *

- Assay summary: Half life in po dosed mouse
- Type: ADME, organism-based
- Condition details: in vivo
Assay endpoint: half-life (h)
Reply with just the number (in h).

Q: Provide one value: measured half-life of O=C(Cc1ccc(-c2ccc(OCCN3CCOCC3)cc2)cn1)NCc1ccccc1
Ans: 1

* * *

- Assay summary: Oral bioavailability in mouse
- Type: ADME, organism-based
- Condition details: in vivo
Assay endpoint: bioavailability (%)
State the answer as a number, implicitly in %.

1. O=C(Cc1ccc(-c2ccc(N3CCOCC3)cc2)cn1)NCc1cccc(F)c1 40
2. O=C(Cc1ccc(-c2ccc(OCCN3CCOCC3)cc2)cn1)NCc1cccc(F)c1 64
3. O=C(Cc1ccc(-c2ccc(OCCN3CCOCC3)cc2)cn1)NCc1ccccc1 49

Lab note: next molecule to report on.
Q: Quote bioavailability reported for O=C(Cc1ccc(-c2ccccc2)cn1)NCc1cccc(F)c1 please.
Ans: 4

* * *

- Assay summary: Drug absorption in po dosed dog
- Assay type: ADME, organism-based, Canis lupus familiaris
- Condition details: in vivo, read-out: Drug absorption
Assay endpoint: Fa

Q: State its Fa for this compound: O=C(Cc1ccc(-c2ccc(OCCN3CCOCC3)cc2)cn1)NCc1ccccc1
Ans: 50 to 90%

* * *

- Assay target: Insulin receptor (Homo sapiens, UniProt P06213)
- Sequence (P06213 28-758 limits assumed): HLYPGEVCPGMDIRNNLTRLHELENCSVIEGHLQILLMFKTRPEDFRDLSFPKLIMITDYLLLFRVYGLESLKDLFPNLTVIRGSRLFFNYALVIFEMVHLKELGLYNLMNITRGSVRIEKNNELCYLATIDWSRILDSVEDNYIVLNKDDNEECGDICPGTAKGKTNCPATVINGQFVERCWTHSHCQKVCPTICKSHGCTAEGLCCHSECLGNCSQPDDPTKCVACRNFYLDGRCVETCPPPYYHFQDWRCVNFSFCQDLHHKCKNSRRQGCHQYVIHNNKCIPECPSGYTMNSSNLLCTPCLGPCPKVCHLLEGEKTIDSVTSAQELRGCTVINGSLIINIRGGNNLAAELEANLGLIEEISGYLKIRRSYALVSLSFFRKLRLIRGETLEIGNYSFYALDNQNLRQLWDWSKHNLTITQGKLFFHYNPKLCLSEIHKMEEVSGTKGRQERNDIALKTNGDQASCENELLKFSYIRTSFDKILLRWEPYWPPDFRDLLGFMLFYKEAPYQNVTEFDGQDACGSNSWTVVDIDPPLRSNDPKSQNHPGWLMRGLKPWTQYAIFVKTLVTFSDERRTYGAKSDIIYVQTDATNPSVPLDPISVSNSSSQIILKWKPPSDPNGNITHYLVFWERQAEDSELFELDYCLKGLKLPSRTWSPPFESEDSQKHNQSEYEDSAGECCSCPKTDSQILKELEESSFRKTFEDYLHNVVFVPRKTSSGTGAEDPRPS
- Sequence (P06213 763-1382 limits assumed): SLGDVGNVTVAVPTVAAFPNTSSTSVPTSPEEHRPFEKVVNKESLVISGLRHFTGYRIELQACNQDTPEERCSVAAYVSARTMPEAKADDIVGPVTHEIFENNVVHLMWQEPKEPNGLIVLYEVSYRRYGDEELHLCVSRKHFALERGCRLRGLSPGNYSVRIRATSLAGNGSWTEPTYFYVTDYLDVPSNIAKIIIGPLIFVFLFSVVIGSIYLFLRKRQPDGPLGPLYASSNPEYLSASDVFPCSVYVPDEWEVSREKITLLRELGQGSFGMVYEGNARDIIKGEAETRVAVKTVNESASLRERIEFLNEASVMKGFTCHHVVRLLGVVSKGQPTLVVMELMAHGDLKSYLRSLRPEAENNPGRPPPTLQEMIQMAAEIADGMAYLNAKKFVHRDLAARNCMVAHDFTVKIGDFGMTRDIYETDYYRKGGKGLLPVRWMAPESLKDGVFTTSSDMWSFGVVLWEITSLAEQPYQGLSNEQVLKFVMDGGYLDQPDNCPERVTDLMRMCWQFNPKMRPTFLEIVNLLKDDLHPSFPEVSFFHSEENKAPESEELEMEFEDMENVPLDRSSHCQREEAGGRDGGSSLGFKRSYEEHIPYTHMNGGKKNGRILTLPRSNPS
- Assay summary: Inhibition of human placental insulin receptor expressed in CHO cells assessed as decrease in insulin-stimulated [3H]-2-deoxyglucose uptake preincubated for 1 hr
Assay endpoint: IC50 (µM)
Respond with the bare value in µM.

Q: Dear colleague, please send me the reported IC50 for O=P(O)(O)C(O)c1ccc2ccccc2c1 (stereo unspecified) when you can.
Ans: 10
